Experiment: yeast display, Sf9 membrane polyspecificity reagent, FACS + sequencing; frameworks hold sequencing errors
Value kind: polyreactivity (PSR sort gate)

The following sequences have reported results that may help.
• QVQLVESGGGLVQAGGSLRLSCAASGTIFPTYAMGWYRQAPGKERELVAAISSIVGGTYYAHSVKGRFTISRDNAKNTVYLQMNSLKPEVTAVYYCAAPEDKYQHCIYGAYGVDYWGQGTQVTVSS = low polyreactivity
• QVQLVESGGGLVQAGGSLRLSCAASGIIIDYYTMGWYRQAPGKERELVAAINKSGGSTYADSVKGRFTISRDNAKNTVYLQMKSLKPEDTAVYYCAAEVDYSDWPEYARKYYYWGQGTQVTVSS = low polyreactivity
• QVQLVESGGGLDQAGGSLRLSCAASGIIFAANAMGWSRQAPGKERELVAAISKNGGITYYADSVQGRFTISRDNAKNTVDLQRNSLKPEDTAVYYCAARWRQTRSYYYWGQGTQVNVSS = high polyreactivity
• QVQLVESGGGLVQAGGSLRLSCAASGSTFSRNAMGWYRQAPGKERELVAAINYSGGITYYADSVKGRFTISRDNAKNTVYLQMNSLKPADTAVYYCAKRGIGDPGQHPLGFGYWGQGTQVTVSS = low polyreactivity
• QVQLVESGGGLVQAGGSLRLSCAASGRTFFINTMGWYRQAPGKERELVAAITWSGGSTYYADSVKGRFTISRDNAKNTVYLQMNSLKPEDTAVYYCAAVYVYRPDIIYVEVAYDYWGQGTQVTVSS = low polyreactivity
• QVQLVESGGGLVQAGGSLRLSCAASGRTFGAYSMGWYRQAPGKERELVASISRSGGSTYYADSVKGRFTISRDNAKNTVYLQMNSLKPEETAVYYCAARVYRYGAMDYWGQGTQVTVSS = high polyreactivity

Name the recorded polyreactivity (PSR sort gate) of the sequence listed here: QVQLVESGGGLVQAGGSLRLSCAASGRTFGSNAMGWFIQAPGKERELVAAISSSDSTNYADSVKGRFTISRDNAKNTVYLQMNSLKPEETAVYYCNAGHPVRSPGYDYWGQGTQVTVSS
low polyreactivity

Name the recorded polyreactivity (PSR sort gate) of the sequence listed here: QVQLVESGGGLVQAGGSLRLSCAASGFIFWWYTMGWYRQAPGKETELVAAITGSGGSTYYADSVKGRFTISRDNAKNTVYLQMNSLKPEDTAVYYCNAVSAYKWQYDYWGQGTQVTVSS
high polyreactivity

Name the recorded polyreactivity (PSR sort gate) of the sequence listed here: QVQLVESGGGLVQAGGSLRLSCAASGRTFWYYAMGWYRPAPGKERELVASISLSGSRTNYADSVKGRFTIARDNAKNTVYLQINRLKPEDTAVYYCAADNFRQFGEYDYLGQGTQVTVSS
low polyreactivity

Name the recorded polyreactivity (PSR sort gate) of the sequence listed here: QVQLVESGGGLVQAGGSLRLSCAASGSTFVNNAMGWYRQAPGKERELVAAIRSSDGRTYYADSVKGRFTISRDNAKNTVYLLMNSLKPEDTAGYYCNAGYWRFIDSYDYWGQGTQVTVSS
high polyreactivity

Name the recorded polyreactivity (PSR sort gate) of the sequence listed here: QVQLVESGGGLVQAGGSLRLSCDASGFIFVVYALGWYRQAPGKERDLVAAITNGGITYYADSVKGRFTISRDNAKNTVYLQMNSLKPEDTAVYYCNAQYTVYDGYVCYYYWGQGTQVTVSS
low polyreactivity

---

Assay: yeast display, Sf9 membrane polyspecificity reagent, FACS + sequencing; frameworks hold sequencing errors
Value kind: polyreactivity (PSR sort gate)

The following sequences have reported results that may help.
* QVQLVESGGGLVQAGGSLRLSCAASGRTFRTYAMGWYRQAPGKERELVAAITSGGSTYYADSVKGRFTISRDNAKNTVYLQMNSLKPEDTAVYDCAAISTWGTKYDYWGQGTQVTVSS | high polyreactivity
* QVQLVESGGGLVQAGGSLRLSCAASGNTLAYYDMGWYRQAPGKESELVAAITSGGTTNYADSVKGRFTISRDNAKNTVYLQMNSLKPEDTAVYYSAALGIGSSRRFSGYVYWGQGTQVTVSS | low polyreactivity
* QVQLVESGGGLVQAGGSLRLSCAASGRIFRRYAMGWYRQAPGKEREFVAAITKSGGSTYYADSVKGRFTISRDNAKNTVYLQMNSLKPEDTAVYDCNAYVIRALGYGGYDYWGQGTQVTVSS | high polyreactivity
* QVQLVESGGGLVQAGGSLRLSCADSGRIIPSYDMGWYRQAPGKERELVAVIRSSVDGTYYADSVKGRFTISRDNAKNTVYLQMNSLKPEDTAVYDCAADSLTPKSASDYWGQGTQVTVSS | low polyreactivity
* QVQLVESGGGLVQAGGSLRLSCAASGRNFYGYTMGWYRQAPGKERELVAAITSGGSTYYADSVKGRFTISRDNAKNTVYLQMNSLKPEDTAVYYCNAKYNGYYRRFSEYDYWGQGTQVTVSS | high polyreactivity
* QVQLVESGGGLVQAGCILRLSCAASGFTFSWYAMGWYRQARGKERELVAAISYSGDSTYYADSVKGRFTISRDNAKNTVYLQMNSLKPEDTAVYYCARRSYYATYYPQPFGYNYLGQGTQVTVSS | high polyreactivity

Name the recorded polyreactivity (PSR sort gate) of the sequence listed here: QVQLVESGGGLVQAGGSLRLSCAASGFTFPGNAMGWYRQAPGKEREFVAAITRSSGSTSYADSVKGRFTISRDNAKNTVYLQMNSLKPEDTAVYRDYWGQGTQVTVSS
low polyreactivity

Name the recorded polyreactivity (PSR sort gate) of the sequence listed here: QVQLVESGGGLVQAGGSLRLSCAASGSILSINGMGWYRQAPGKERELVATIDGSDGTTFYADSVKGRFTISRDNAKNTVYLQMNSLKPEDTAVYYCAAENFWQTKEYDYWGQGTQVTVSS
low polyreactivity

Name the recorded polyreactivity (PSR sort gate) of the sequence listed here: QVQLVESGGGLVQAGGSLRLSCAASGSTSALYAMGWYRQAPGKERELVATITRSGTTKYADSVKGRFTISRDNAKNTVYLQMNSLKPEDTAVYYCNTDTYFPLYDYWGQGTQVTVSS
low polyreactivity

Name the recorded polyreactivity (PSR sort gate) of the sequence listed here: QVQLVESGGGLVQAGGSLRLSCAASGFTFIRYAMGWYRQAPGKERELVATITRSGGSTYYADSVKGRFTISRDNAKNTVYLQMNSLKPEDTAVYYCAKRGTLGSYYYWGQGTQVTVSS
high polyreactivity

Name the recorded polyreactivity (PSR sort gate) of the sequence listed here: QVQHVESGGGLVQAGGSLRLSCAASGSTFGLYAMGWYRQAPGKERELVAAISRRGGSTYYADSVKGRLTISRDNAKNTVYLQMNSLRPVETAVYDCAAVTAYRFDTLGMDYWGQGTQVTVSS
high polyreactivity

Name the recorded polyreactivity (PSR sort gate) of the sequence listed here: QVQLVESGGGLVHAGGSLRLSCAASGFTFGGYALGWYRQAPGKERELVAAITGSGGNTFYADSVKGRFTISRDNAKNTVYLQMNSLKPEDTAVYYCAKTWYPWSRYGYYRRYDSWGQGTQVTVSS
low polyreactivity

Name the recorded polyreactivity (PSR sort gate) of the sequence listed here: QVQLVESGGGIVQAGGSLRLSCAASGFTFGYYARGWYRQAPGKERELVAAISSRVGRTYYADSVKGRFTISRDNAKNTDYLQMNSLKPEDTAVYYCNTVGKTQWYYYWGQGTQVTVAS
high polyreactivity

---

Experiment: yeast display, Sf9 membrane polyspecificity reagent, FACS + sequencing; frameworks hold sequencing errors
Value kind: polyreactivity (PSR sort gate)

- QVQLVESGGGLVQAGGSLRLSCAASGRTFVFYAMGWYRQAPGKERELVAAITSSGGRTYYADSVKGRFTISRDNAKNTVYLQMNSLKPEDTAFYYCAAPYYPYKYDYWGQGTQVTVSS: low polyreactivity
- QVQLVESGGGLVQAGGSLRLSCAASGYIFRGYVMGWYRQAPGKERELVAAITSSGGSTYYADSVKGRFTISRDNAKNTVYLQMISLKPEDTAVYYCAARGYSPHYYWGQGTQVTVSS: high polyreactivity
- QVQLVESGGGLVQAGGSLRLSCAASGRIIGKNVMGWSRQAPGKDRELVAAISNSGGSTYYADSVKGRFTISRDNAKNTVYLQMNSLKPEDTAVYYCAVDTSYYDYWGQGTQVTVSS: high polyreactivity
- QVQLVESGRGLVQAGGSLRLSCAASGSTFNRNAMGWYRQAPGKERELVAAITIRGGSTSYADSVKGRFTISRDNAKNTVYLQMNSLKPEDTAVYYCNRQSRNAGGYYWGQGTHVTVSS: low polyreactivity
- QVQLVESGGGLVQAGGSLRLTCAASGGIFQFYDMGWYRQAPGKERELVAAITSSGGSTYADSVKGRFTISRDNAKYTVYLQMNSLKPEVTAVYYCAASLVWEYAPGWRFKYGYWGQGTQVTVSS: high polyreactivity

Name the recorded polyreactivity (PSR sort gate) of the sequence listed here: QVQLVESGGGLVQAGGSLRLSCAPSGSTFGYNDMGWYRQAPGKERELVAAIDTGVSTNYADSVKGRFTISRDNAMNTVYLQMNSLKPVDTAVYYLAKSGSAYWHSGWSVGFDYWGQGTQVTVSS
low polyreactivity

Name the recorded polyreactivity (PSR sort gate) of the sequence listed here: QVQLVESGGGLVQAGGSLRLSCAASGFIFSFYVMGWYRQAPGKERELVAAISTSGASTYYADSVKGRFTISRDNAKNTVYLQMNSLKPEDTAVFYCNVVYRYGGYNYWGQGTQVTVSS
high polyreactivity

Name the recorded polyreactivity (PSR sort gate) of the sequence listed here: QVQLVESGGGLVQAGGSLRLSCAASGRTFLYSTMGWYRQAPGKERELVAAISKSVGRTYYADSVKGRFTISRDNAKNTVYLQMNSLKPEDTAVYYCAKRWYAGAQHGFDYLGQGTQVTVSS
low polyreactivity
